pKi: −log10 of the molar value.
Let's look at some pKi data for Adenosine receptor A3 (Homo sapiens) that I collected from the literature.
Output y for pKi not less than 6; output n otherwise.

>>> df
                                    molecule                                   tgt  label
 0  CCCCCC(=O)Nc1nc(N(C)C)nc2nc(-c3ccco3)nn12  Adenosine receptor A3 (Homo sapiens)      n
 1  O=C(NCCc1ccccc1)[C@H]1S[C@@H](n2cnc3c(NCc4cccc(I)c4)ncnc32)[C@H](O)[C@@H]1O  Adenosine receptor A3 (Homo sapiens)      y
 2  CCOC(=O)c1cnc(N2CCOCC2)n2nc(-c3ccco3)nc12  Adenosine receptor A3 (Homo sapiens)      n
 3  CNC(=O)[C@@]12C[C@@H]1[C@@H](n1cnc3c(NCCc4ccc(O)c(OC)c4)nc(C#Cc4cccs4)nc31)[C@H](O)[C@@H]2O  Adenosine receptor A3 (Homo sapiens)      y
 4  CCCCn1c(=O)[nH]c2nc(-c3ccc(CC(=O)O)cc3)[nH]c2c1=O  Adenosine receptor A3 (Homo sapiens)      n
 5  CCOC(=O)c1nc(NC(=O)c2ccc(C(F)(F)F)cc2)nc2nn(C(C)C)cc12  Adenosine receptor A3 (Homo sapiens)      n
 6  CCCn1c(=O)c2[nH]c(-c3ccc(NC(=O)Cc4ccc(OC)c(OC)c4)cc3)nc2n(CCC)c1=O  Adenosine receptor A3 (Homo sapiens)      n
 7  O=c1c(-c2ccccc2)nnc2n(-c3ccccc3)c3ccc(Cl)cc3n12  Adenosine receptor A3 (Homo sapiens)      n
 8  CCCn1c(=O)c2[nH]c(-c3cc(C)n(CC(=O)Nc4ccc(Cl)c(Cl)c4)n3)nc2n(CCC)c1=O  Adenosine receptor A3 (Homo sapiens)      n
 9  Cn1cc2c(nc(NC(=O)NC3CCN(C(=O)NCc4ccccc4)CC3)n3nc(-c4ccco4)nc23)n1  Adenosine receptor A3 (Homo sapiens)      y
10  CCCn1c(=O)c2[nH]c(C34CCC(O)(CC3)CC4)nc2n(CCC)c1=O  Adenosine receptor A3 (Homo sapiens)      n
11  CCOC(=O)C(C)Nc1nc2nn(C)cc2c2nc(-c3ccco3)nn12 (racemic)  Adenosine receptor A3 (Homo sapiens)      y
12      CCOc1cccc2cc(-c3ccc(Br)cc3)c(=O)oc12  Adenosine receptor A3 (Homo sapiens)      n
13     COc1cccc(-n2cc3c(n2)c(N)nc2ccccc23)c1  Adenosine receptor A3 (Homo sapiens)      y
14             C#CCn1c(=O)c2[nH]cnc2n(C)c1=O  Adenosine receptor A3 (Homo sapiens)      n
15  C[C@H](Nc1nc2nn(C)cc2c2nc(-c3ccco3)nn12)c1ccccc1  Adenosine receptor A3 (Homo sapiens)      y

---

Let's look at some Ki data for Adenosine receptor A3 (Homo sapiens) that I collected from the literature.
Please use true (1) for Ki under 0.3 µM and false (0) for everything else, ties included.

>>> df
                                    molecule                                   tgt      label
 0            Clc1ncnc2sc(Nc3cccc(Br)c3)nc12  Adenosine receptor A3 (Homo sapiens)  false (0)
 1  Cn1cc2c(nc(NC(=O)Nc3ccc[n+]([O-])c3)n3nc(-c4ccco4)nc23)n1  Adenosine receptor A3 (Homo sapiens)   true (1)
 2  Nc1ccc(-c2cn3c(=O)n(-c4ccccc4)nc3c(N)n2)cc1  Adenosine receptor A3 (Homo sapiens)   true (1)
 3  COC(=O)CCC(=O)Nc1nc2ccc(Cl)cc2c2nc(-c3ccco3)nn12  Adenosine receptor A3 (Homo sapiens)   true (1)
 4  Cn1cc2c(nc(NC(=O)Nc3cccnc3)n3nc(-c4ccco4)nc23)n1  Adenosine receptor A3 (Homo sapiens)   true (1)
 5  CCOC(=O)[C@]12C[C@@H]1[C@@H](n1ccc3c(NCCc4ccccc4)nc(C#Cc4ccccc4)nc31)[C@H](O)[C@@H]2O  Adenosine receptor A3 (Homo sapiens)  false (0)
 6         COc1nc2nn(C)cc2c2nc(-c3ccco3)nn12  Adenosine receptor A3 (Homo sapiens)  false (0)
 7  CCC(C)n1cnc2ncnc(N)c21 (stereo not given)  Adenosine receptor A3 (Homo sapiens)  false (0)
 8  COc1ccc(CCCn2ncc3c2nc(N)n2nc(-c4ccco4)nc32)cc1  Adenosine receptor A3 (Homo sapiens)  false (0)
 9  Cc1sc2nc(-c3sc(NC(=O)c4ccccc4)nc3-c3ccccc3)nc(N)c2c1C  Adenosine receptor A3 (Homo sapiens)  false (0)
10           Oc1nc2ccccc2c2cc(-c3ccccn3)nn12  Adenosine receptor A3 (Homo sapiens)   true (1)
11  Nc1nc(OCCc2ccc(F)cc2)nc2c1ncn2[C@@H]1O[C@H](CO)[C@@H](O)[C@H]1O  Adenosine receptor A3 (Homo sapiens)   true (1)
12  CCc1cn(-c2nc(NC)c3ncn([C@@H]4O[C@H](CO)[C@@H](O)[C@H]4O)c3n2)nn1  Adenosine receptor A3 (Homo sapiens)   true (1)
13         N#Cc1c(N)nc(SCCO)c(C#N)c1-c1cccs1  Adenosine receptor A3 (Homo sapiens)  false (0)
14  CCC1CN2C(=O)N(Cc3ccccc3)c3nc(-c4cc(C)n(C)n4)[nH]c3C2=N1 (racemic)  Adenosine receptor A3 (Homo sapiens)   true (1)
15  CN1CCC(NC(=O)Nc2nc3nn(C)cc3c3nc(-c4ccco4)nn23)CC1  Adenosine receptor A3 (Homo sapiens)   true (1)
16  CC(C)(C)c1cc(C(=O)NCCOc2ccc(-c3cn4c(=O)n(-c5ccccc5)nc4c(N)n3)cc2)cc(C(C)(C)C)c1O  Adenosine receptor A3 (Homo sapiens)  false (0)
17     COc1ccc(C(=O)Nc2cccc(-c3ccccc3)c2)cc1  Adenosine receptor A3 (Homo sapiens)  false (0)
18  CCCn1c(=O)c2nc(-c3cnn(Cc4nc(-c5ccc(OC)cc5)no4)c3)[nH]c2n(CCC)c1=O  Adenosine receptor A3 (Homo sapiens)  false (0)
19      CN(C)c1nc2nn(C)cc2c2nc(-c3ccco3)nn12  Adenosine receptor A3 (Homo sapiens)  false (0)
20  Cc1ccc(Nc2nc(-c3ccc(C)cc3)c(C(=O)Nc3sc4c(c3C#N)CCCC4)s2)cc1  Adenosine receptor A3 (Homo sapiens)  false (0)
21  CCOC(=O)c1ccc(N2CCN(c3nc(N)c4nc(-c5ccco5)sc4n3)CC2)cc1  Adenosine receptor A3 (Homo sapiens)  false (0)
22  OC[C@H]1O[C@@H](n2cnc3c(NCc4cccs4)ncnc32)[C@H](O)[C@@H]1O  Adenosine receptor A3 (Homo sapiens)   true (1)
23  CCn1c(=O)c2[nH]c(-c3ccc(OCC(=O)Nc4ccccc4)cc3)nc2n(CCCOC)c1=O  Adenosine receptor A3 (Homo sapiens)  false (0)
24                      Nc1ncnc2ncn(CCCO)c12  Adenosine receptor A3 (Homo sapiens)  false (0)
25     OC[C@@H]1CCCN1c1nc(-c2nccs2)c2sccc2n1  Adenosine receptor A3 (Homo sapiens)  false (0)
26  Cn1c(=O)c2c(nc3n2CCN(c2ccccc2)C3)n(C)c1=O  Adenosine receptor A3 (Homo sapiens)  false (0)
27   Cn1cc2c(nc(N)n3nc(-c4ccc(Cl)cc4)nc23)n1  Adenosine receptor A3 (Homo sapiens)   true (1)
28  O=c1n(-c2ccccc2)nc2c(NS(=O)(=O)c3ccccc3)nc3ccccc3n12  Adenosine receptor A3 (Homo sapiens)   true (1)
29  CCCn1c(=O)c2[nH]c(-c3cc(OCC(=O)Nc4ccc(C(C)=O)cc4)nn3C)nc2n(CCC)c1=O  Adenosine receptor A3 (Homo sapiens)  false (0)
30  CCNC(=O)[C@H]1O[C@@H](n2cnc3c(N)nc(NCCc4ccc(CCC(=O)N[C@@H](CCCN=C(N)N)C(=O)O)cc4)nc32)[C@H](O)[C@@H]1O  Adenosine receptor A3 (Homo sapiens)  false (0)
31  CCCn1c(=O)c2[nH]c(-c3ccc(NC(=O)Nc4cccc(OC)c4)cc3)nc2n(CCC)c1=O  Adenosine receptor A3 (Homo sapiens)  false (0)
32  CC(=O)Oc1ccc(-c2cc3ccc(OC(C)=O)c(OC(C)=O)c3oc2=O)cc1  Adenosine receptor A3 (Homo sapiens)  false (0)
33  c1nc2nc(Nc3ccc(N4CCOCC4)cc3)[nH]c(NC3CCCC3)c-2n1  Adenosine receptor A3 (Homo sapiens)  false (0)
34  Cn1cc2c(nc(N=C(Nc3ccc([N+](=O)[O-])cc3)Nc3ccc([N+](=O)[O-])cc3)n3nc(-c4ccco4)nc23)n1  Adenosine receptor A3 (Homo sapiens)   true (1)
35  Cc1cccc(-c2n[nH]c(NC(=O)[C@@H](C)Oc3ccccc3)n2)c1  Adenosine receptor A3 (Homo sapiens)  false (0)
36  OC[C@@H]1CCCN1c1ncnc2sc(Nc3c(F)cccc3F)nc12  Adenosine receptor A3 (Homo sapiens)  false (0)
37  CN1CCN(c2nc(-c3cccc(O)c3)nc3[nH]cnc23)CC1  Adenosine receptor A3 (Homo sapiens)  false (0)
38  COc1ccc(-n2nc3c(NS(C)(=O)=O)nc4ccccc4n3c2=O)cc1  Adenosine receptor A3 (Homo sapiens)  false (0)
39  Cc1ccc(NC(=O)Nc2nc3nn(C)cc3c3nc(-c4ccco4)nn23)s1  Adenosine receptor A3 (Homo sapiens)   true (1)
